Assign IC50 to each entry below.
Test system: HT-1080
Test: Cytotoxicity against Homo sapiens (human) HT1080 cells after 48 hr by MTT assay
Format: functional, cell-based
Conditions: HT-1080, 48 h

// below: answered molecules
For the molecule C[C@H]1[C@@H](OCCNC(=O)Nc2ccc(C(F)(F)F)cc2)O[C@@H]2O[C@@]3(C)CC[C@H]4[C@H](C)CC[C@@H]1[C@@]24OO3 , the measured IC50 on HT-1080 was > 100 µM

For the molecule C[C@H]1[C@@H](OCCNC(=O)Nc2ccc(Br)cc2)O[C@@H]2O[C@@]3(C)CC[C@H]4[C@H](C)CC[C@@H]1[C@@]24OO3 , the measured IC50 on HT-1080 was > 100 µM

Continue with the next molecule.
For the molecule C[C@H]1[C@H](OCCNC(=O)Nc2ccc(C(F)(F)F)cc2)O[C@@H]2O[C@@]3(C)CC[C@H]4[C@H](C)CC[C@@H]1[C@@]24OO3 , the measured IC50 on HT-1080 was > 100 µM
